# assay remarks: protein stability index of a GFP-peptide fusion (GPS, HEK-293T) (PSI 1-6); higher = more stable;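 further: 24-mer peptide tiles fused after GFP, lentivirally expressed, FACS-sorted into six equal bins by GFP/DsRed ratio, decoded by Illumina sequencing, PSI is the read-weighted mean bin number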
# applied conditions: treatment: DMSO; c terminus: a fixed tail appended
Catalogue of protein stability index values
experimental readout: protein stability index

{"sequence string": "RADSFKVSYQLADGGEPQSVQVDG [TNXB]", "result": 4.89}
{"sequence string": "RAPHKESTLPRSGSSGGQQPSGMK [CHCHD6]", "result": 4.96}
{"sequence string": "LESSDLPVALLLAQHKDRSTQLEM [MNAT1]", "result": 3.47}
{"sequence string": "AGDAEVCPTPARLATTEKKTEQQR [NOP53]", "result": 5.37}
